pKd: −log10 of the molar value.
Record: pKd reported on SOS1 catalytic domain (residues 564-1049) (Homo sapiens (Human), UniProt Q07889).
measuredAttribute: pKd

1. C[C@@H]1CN(C(=O)c2cc3c(N[C@H](C)c4cccc(C(F)F)c4F)ncnc3n(C)c2=O)C[C@H](C)O1 = 6.32
2. C[C@@H](Nc1ncnc2c1cc(C1=CCS(=O)(=O)CC1)c(=O)n2C)c1cccc(C(F)F)c1F = 7.67
3. C[C@@H](Nc1ncnc2c1cc(C1=C[C@H]3CNC[C@@H](C1)O3)c(=O)n2C)c1cccc(C(F)F)c1F = 7.86
4. Cc1nc(N[C@H](C)c2cccc(C(F)F)c2F)c2cc(-c3ccnnc3)c(=O)n(C)c2n1 = 6.48
5. C[C@@H](Nc1ncnc2c1cc(C1CCS(=O)(=O)CC1)c(=O)n2C)c1cccc(C(F)F)c1F = 7.42
6. CC(=O)N1CC=C(c2cc3c(N[C@H](C)c4cccc(C(F)F)c4C)ncnc3n(C)c2=O)CC1 = 7.26
7. C[C@@H](Nc1ncnc2c1cc(C1=CCOCC1)c(=O)n2C)c1cccc(C(F)F)c1F = 7.79
8. C[C@@H](Nc1ncnc2c1cc(C1CN(C)CCO1)c(=O)n2C)c1cccc(C(F)F)c1F (some centres unmarked) = 7.62
9. C[C@@H](Nc1ncnc2c1cc(C1CCN(CCF)CC1)c(=O)n2C)c1cccc(C(F)F)c1F = 7.53
10. C[C@@H](Nc1ncnc2c1cc(C1=C[C@@H]3CNC[C@H](C1)O3)c(=O)n2C)c1cccc(C(F)F)c1F = 8.20
11. Cc1nc(N[C@H](C)c2cccc(C(F)F)c2F)c2cc(C3CCN(C4COC4)CC3)c(=O)n(C)c2n1 = 6.70
12. CC(=O)N1CC=C(c2cc3c(N[C@H](C)c4cccc(C(C)(F)F)c4)ncnc3n(C)c2=O)CC1 = 7.43
13. C[C@@H]1COC[C@H](C)N1C(=O)c1cc2c(N[C@H](C)c3cccc(C(F)F)c3F)ncnc2n(C)c1=O = 6.46
14. C[C@@H](Nc1ncnc2c1cc(C1(O)CCC3(CC1)CS(=O)(=O)C3)c(=O)n2C)c1cccc(C(F)F)c1F = 7.68
15. C[C@@H](Nc1ncnc2c1cc(C(=O)N1CCN(C3COC3)CC1)c(=O)n2C)c1cccc(C(F)F)c1F = 7.27
16. Cc1nc(N[C@H](C)c2cccc(C(F)F)c2F)c2cc(C3CCOC3)c(=O)n(C)c2n1 (some centres unmarked) = 6.80
17. CC(=O)N1CC=C(c2cc3c(N[C@H](C)c4cccc(C(F)F)c4Cl)ncnc3n(C)c2=O)CC1 = 6.91
18. Cc1nc(N[C@H](C)c2cccc(C(F)F)c2F)c2cc(-c3cccnc3OCCO)c(=O)n(C)c2n1 = 6.63
19. Cc1nc(N[C@H](C)c2cccc(C(F)F)c2F)c2cc(C3=CCS(=O)(=O)CC3)c(=O)n(C)c2n1 = 7.00
20. C[C@@H](Nc1ncnc2c1cc(C1CCN(C3COC3)CC1)c(=O)n2C)c1cccc(C(F)F)c1F = 7.21
21. Cc1nc(N[C@H](C)c2cccc(C(F)F)c2F)c2cc(-c3cccn(CCO)c3=O)c(=O)n(C)c2n1 = 6.67
22. CC(=O)N1CC=C(c2cc3c(N[C@H](C)c4cccc(C(F)(F)F)c4C)ncnc3n(C)c2=O)CC1 = 6.84
23. C[C@@H](Nc1ncnc2c1cc(C1(F)CCN(C)CC1)c(=O)n2C)c1cccc(C(F)F)c1F = 7.38
24. COc1ccc(-c2cc3c(N[C@H](C)c4cccc(C(F)F)c4F)ncnc3n(C)c2=O)cc1OC = 6.07
25. Cc1nc(N[C@H](C)c2cccc(C(F)F)c2F)c2cc(N3CC4(COC4)C3)c(=O)n(C)c2n1 = 7.05
26. C[C@@H](Nc1ncnc2c1cc(C(=O)N1CCn3cncc3C1)c(=O)n2C)c1cccc(C(F)F)c1F = 6.59
27. C[C@@H](Nc1ncnc2c1cc(C1=CCNCC1)c(=O)n2C)c1cccc(C(F)(F)F)c1 = 7.87
28. Cc1nc(N[C@H](C)c2cccc(C(F)F)c2F)c2cc(C3=CCN(C)CC3)c(=O)n(C)c2n1 = 7.63
29. CC(=O)N1CC=C(c2cc3c(N[C@H](C)c4cccc5c4OCC5(F)F)ncnc3n(C)c2=O)CC1 = 7.66

* * *

- systemTested: SOS1 catalytic domain (residues 564-1049) (Homo sapiens (Human), UniProt Q07889)
Recorded Kd by entry
measuredAttribute: Kd (µM)

1. C[C@@H](Nc1ncnc2c1cc(C1CCN(CC(F)(F)F)CC1)c(=O)n2C)c1cccc(C(F)F)c1F [Example 8-16] = 0.136
2. C[C@@H](Nc1ncnc2c1cc(C(=O)N1CC(F)C1)c(=O)n2C)c1cccc(C(F)F)c1F [Example 26-1] = 0.285
3. C[C@@H](Nc1ncnc2c1cc(C(=O)N1C3CCC1COC3)c(=O)n2C)c1cccc(C(F)F)c1F [Example 26-12] = 0.158
4. Cc1nc(N[C@H](C)c2cccc(C(F)F)c2F)c2cc(C3=CCCOC3)c(=O)n(CCO)c2n1 [Example 11-1] = 0.0813
5. C[C@@H](Nc1ncnc2c1cc(C1CCN(S(C)(=O)=O)CC1)c(=O)n2C)c1cccc(C(F)F)c1F [Example 8-15] = 0.0904
6. COC[C@H]1CCCN1C(=O)c1cc2c(N[C@H](C)c3cccc(C(F)F)c3F)ncnc2n(C)c1=O [Example 26-24] = 0.16
7. CC(=O)N1CCC(c2cc3c(N[C@H](C)c4cccc(C(F)F)c4F)nc(C)nc3n(C)c2=O)CC1 [Example 8-9] = 0.12

* * *

- systemTested: SOS1 nucleotide exchange of wild-type KRAS (Homo sapiens (Human), UniProt Q07889)
- Sequence (Q07889 564-1049): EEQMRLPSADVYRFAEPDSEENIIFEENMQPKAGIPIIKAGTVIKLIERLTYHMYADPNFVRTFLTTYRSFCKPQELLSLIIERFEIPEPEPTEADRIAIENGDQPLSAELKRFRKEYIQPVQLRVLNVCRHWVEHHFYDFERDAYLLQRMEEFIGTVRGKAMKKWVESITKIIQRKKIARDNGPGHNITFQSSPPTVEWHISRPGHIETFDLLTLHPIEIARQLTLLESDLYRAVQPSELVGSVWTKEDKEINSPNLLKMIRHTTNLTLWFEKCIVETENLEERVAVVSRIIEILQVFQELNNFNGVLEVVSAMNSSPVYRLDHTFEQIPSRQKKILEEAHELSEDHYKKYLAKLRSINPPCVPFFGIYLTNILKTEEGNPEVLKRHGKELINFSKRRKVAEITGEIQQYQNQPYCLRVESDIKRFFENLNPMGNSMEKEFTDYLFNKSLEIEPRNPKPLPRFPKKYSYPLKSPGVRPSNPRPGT
Reported log10 of IC50 values for a set of molecules
measuredAttribute: log10 of IC50 (log10 of the value in nM)

1) C[C@@H](Nc1ncnc2c1cc(C(=O)N1CCN(C)CC1)c(=O)n2C)c1cccc(C(F)F)c1F [Example 26-7] = 1.71
2) C[C@@H](Nc1ncnc2c1cc(C1CCN(S(C)(=O)=O)CC1)c(=O)n2C)c1cccc(C(F)F)c1F [Example 8-15] = 1.60
3) Cc1nc(N[C@H](C)c2cccc(C(F)F)c2F)c2cc(C3CCS(=O)(=O)CC3)c(=O)n(C)c2n1 [Example 8-12] = 1.81
4) C[C@@H](Nc1ncnc2c1cc(C1=CCNC1)c(=O)n2C)c1cccc(C(F)F)c1F [Example 1-1] = 1.62
5) C[C@@H](Nc1ncnc2c1cc(C1=C[C@@H]3CNC[C@H](C1)O3)c(=O)n2C)c1cccc(C(F)F)c1F [Example 1-15] = 1.60
6) Cc1nc(N[C@H](C)c2cccc(C(F)F)c2F)c2cc(C3=CCN(C)CC3)c(=O)n(C)c2n1 [Example 1-10] = 1.63
7) COc1ccc(Cc2cc3c(N[C@H](C)c4cccc(C(F)F)c4F)nc(C)nc3n(C)c2=O)cc1OC [Example 20-1] = 3.79
8) Cc1nc(N[C@H](C)c2cccc(C(F)F)c2F)c2cc(N3CCNCC3=O)c(=O)n(C)c2n1 [Example 2-4] = 1.95
9) C[C@@H](Nc1ncnc2c1cc(C(=O)N1CC(F)C1)c(=O)n2C)c1cccc(C(F)F)c1F [Example 26-1] = 2.21
10) C[C@@H](Nc1ncnc2c1cc(-c1cncnc1)c(=O)n2C)c1cccc(C(F)F)c1F [Example 21-2] = 1.63
11) C[C@@H](Nc1ncnc2c1cc(C1(F)CCN(C)CC1)c(=O)n2C)c1cccc(C(F)F)c1F [Example 29-3] = 1.63
12) C[C@@H](Nc1ncnc2c1cc(-c1cnc(F)nc1)c(=O)n2C)c1cccc(C(F)F)c1F [Example 21-5] = 2.10
13) C[C@@H](Nc1ncnc2c1cc(C1CN(C)CCO1)c(=O)n2C)c1cccc(C(F)F)c1F (stereo partly drawn) [Example 8-1] = 1.39
14) CC(=O)N1CC=C(c2cc3c(N[C@H](C)c4cccc(C(F)F)c4C)ncnc3n(C)c2=O)CC1 [Example 1-11] = 1.47
15) C[C@@H](Nc1ncnc2c1cc(C1=CCOCC1)c(=O)n2C)c1cccc(C(F)F)c1F [Example 1-5] = 1.51

* * *

- systemTested: SOS1 catalytic domain (residues 564-1049) (Homo sapiens (Human), UniProt Q07889)
- assayMethodText: Potency assay: binding affinity to SOS1 by Surface Plasmon Resonance (SPR)
- runConditions: avi-tagged SOS1 catalytic domain immobilized on sensor chip; 1:1 equilibrium binding fit
pKd: −log10 of the molar value.
measuredAttribute: pKd

1. C[C@@H](Nc1ncnc2c1cc(C(=O)N1CCS(=O)(=O)CC1)c(=O)n2C)c1cccc(C(F)F)c1F [Example 26-38] = 6.63
2. Cc1nc(N[C@H](C)c2cccc(C(F)F)c2F)c2cc(C3=CCNCC3)c(=O)n(C)c2n1 [Example 1-9] = 7.13
3. COc1ncccc1-c1cc2c(N[C@H](C)c3cccc(C(F)F)c3F)nc(C)nc2n(C)c1=O [Example 21-9] = 6.47
4. C[C@@H](Nc1ncnc2c1cc(C(=O)N1C3CC1CN(C)C3)c(=O)n2C)c1cccc(C(F)F)c1F [Example 26-11] = 7.01
5. C[C@@H](Nc1ncnc2c1cc(-c1cncnc1)c(=O)n2C)c1cccc(C(F)F)c1F [Example 21-2] = 7.07
6. CC(=O)N1CCC=C(c2cc3c(N[C@H](C)c4cccc(C(F)F)c4F)ncnc3n(C)c2=O)C1 [Example 1-14] = 7.72
7. Cc1nc(N[C@H](C)c2cccc(C(F)F)c2F)c2cc(C3=CCN(C4COC4)CC3)c(=O)n(C)c2n1 [Example 1-26] = 7.21
